assay: protein stability index of a GFP-peptide fusion (yeast GPS) (PSI 1-4); higher = more stable; sorted into four equal gates, so the index is relative within each strain; settings: san1∆
# reported protein stability index; entries follow
Give the figure by itself; no unit, no explanation.

KLLFQELLSMNIAPRLR [RET1] : 1.35
YLADDIDADSLEDIYTS [RPL5] : 2
ELKKYMDKKILLNINGS [SMX2] : 2
ELISLRKILESSNIVNE [YIL149C/MLP2] : 2.33
LSIELEGGKNQAELLQL [YJL039C/NUP192] : 3.31

From here, focus on the item given below.
Fill blank: measured protein stability index of the sequence MGEAQTGANFDDVERGV [REC8] is ____.
3.52
